From: PubChem BioAssay

We begin with a simple list: items and their reported composite Z-score.
experiment: small-molecule microarray binders of probe aXIP, primary screen, biochemical, NeuroSMM set, 635/667 nm fluorescence (AID 1119); conditions: higher = more signal, called active from +8 up or from −8 down;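 also: probe is the protein aXip251-270 applied at 1 µg/mL to compound-printed slides; binding of probe to printed compounds measured as 667 nm fluorescence plus signal to noise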
Active and inactive are the calls of the source.

compound: COC(=O)[C@H](C)NC(=O)CCC1CC(OC(=O)NCc2ccc3c(c2)OCO3)CC2(CCCC(COC(=O)NCCc3ccccc3OC)O2)O1 (some centres undefined)
composite Z-score: 0.0923 (inactive)
--
compound: CCOC(=O)NN=C1C[C@@H](O)[C@@H](O)[C@@H]2[C@@H]3C(=O)N(c4ccc(F)cc4F)C(=O)[C@@H]3CC[C@@H]12
composite Z-score: 0.16 (inactive)
--
compound: COC(=O)CC=C[C@@H](C)[C@@H](C=NO[C@@H](C)c1cn([C@H](CO)Cc2ccccc2)nn1)NS(=O)(=O)c1ccc(C)cc1
composite Z-score: -0.0278 (inactive)
--
compound: Cc1ccc(S(=O)(=O)n2c3ccccc3c3nnc(C(=O)c4ccccc4)nc32)cc1
composite Z-score: 0.0578 (inactive)

====

assay: yeast growth modulation, basal conditions, primary screen, YJM789 clinical isolate, OD600, 24 h (AID 1089);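 also: growth of clinical yeast isolate S. cerevisiae YJM 789 seeded 1000 cells per well; test concentration not given here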; conditions: S. cerevisiae YJM789 growth, higher = more signal, called active from +8 up or from −8 down

compound: C[n+]1ccc(-c2ccc(CO)cc2)cc1
z-score: -1.14
//
compound: COC(=O)CC=C[C@@H](C)[C@@H](C=NOCC[C@@H]1C=C[C@H](OC(C)=O)[C@@H](COC(C)=O)O1)OC
z-score: 0.355
//
compound: COC(=O)CC=C[C@@H](C)[C@@H]1C=C[C@H](O)[C@@H](CO)O1
z-score: 0.773
//
compound: CCOC(=O)[C@H](CC(C)C)NC(=O)CCC1CC(OC(=O)NCc2cccc3ccccc23)CC2(CCCC(COC(=O)NCCCN3CCCC3=O)O2)O1 (stereo not given in full)
z-score: -0.139
//
compound: COc1cccc([C@@H]2Oc3ccc(OC)cc3C(=O)[C@H]2O)c1
z-score: -2.23

====

experiment: RPMI8226 myeloma cell viability, profiling panel, resazurin fluorescence, basal, 24 h, PK04 Diversity Set (AID 1180); details: higher = more signal;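 also: RPMI8826 multiple myeloma cell line at 5000 cells per well; test concentration not given here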
Categories are assigned from the measured z-score using these intervals: LOW (below -0.4), MEDIUM (-0.4 to below 0.5), HIGH (0.5 or more)

molecule: Cc1ccc(S(=O)(=O)N[C@@H]2COC(=O)[C@@H](C)COC(=O)CC=C[C@H]2C)cc1
categoryLabel: MEDIUM
--
molecule: CCN1C(=O)[C@H]2[C@H]3[C@H](O)[C@H](O)CC(=NNC(=O)OCc4ccc(OC)cc4)[C@@H]3CC[C@H]2C1=O
categoryLabel: MEDIUM
--
molecule: O=C(NN=C1C[C@@H](O)[C@@H](O)[C@@H]2[C@@H]3C(=O)N(C[C@@H]4CCCO4)C(=O)[C@@H]3CC[C@H]12)OCc1ccccc1
categoryLabel: HIGH
--
molecule: O=C1[C@H]2[C@H]3[C@H](O)[C@H](O)CC(=NOCc4ccccc4)[C@@H]3CC[C@H]2C(=O)N1Cc1ccc2c(c1)OCO2
categoryLabel: HIGH
--
molecule: O=C(NN=C1C[C@@H](O)[C@@H](O)[C@@H]2[C@@H]3C(=O)N(Cc4ccccc4)C(=O)[C@@H]3CC[C@@H]12)OCc1ccccc1
categoryLabel: MEDIUM
--
molecule: CCCNC(=O)OC[C@H]1O[C@H](c2ccccc2)C=C[C@@H]1Oc1ccc(OC)cc1
categoryLabel: MEDIUM
--
molecule: CO[C@@H]1COC(=O)[C@H](CCSC)NC(=O)CC=C[C@@H](C)COC(=O)[C@H](C)NC(=O)CC=C[C@H]1C
categoryLabel: HIGH
--
molecule: CC(C)=CCCC(C)=CCON=C1C[C@@H](O)[C@@H](O)[C@@H]2[C@@H]3C(=O)N(C4CCCCC4)C(=O)[C@@H]3CC[C@@H]12
categoryLabel: LOW
--
molecule: CC(C)(C)N1C(=O)[C@H]2[C@H]3[C@H](O)C=CC(=O)[C@@H]3CC[C@H]2C1=O
categoryLabel: MEDIUM
--
molecule: CC(CCN1CCCc2nc(C)c(C)cc21)=NOC(C)CN1CCCCc2nc(C)c(C)cc21 (configuration not stated)
categoryLabel: MEDIUM
--
molecule: CCOC(=O)[C@H](CC(C)C)NC(=O)CCC1CC(OC(=O)NCc2cccc3ccccc23)CC2(CCCC(COC(=O)NCCCN3CCCC3=O)O2)O1 (some centres not stated)
categoryLabel: MEDIUM
--
molecule: COC(=O)[C@@H]1CC[C@H](C)[C@@H](c2ccc(C)cc2)N1C(=O)c1ccc(C=NO[C@@H](C)c2cn([C@H](CO)Cc3ccccc3)nn2)cc1
categoryLabel: LOW
--
molecule: CCOC(=O)[C@H](CC(C)C)NC(=O)CCC1CC(OC(=O)NCc2cccc3ccccc23)CC2(CCCC(COC(=O)NCc3cccc(C(F)(F)F)c3)O2)O1 (some centres not stated)
categoryLabel: HIGH
--
molecule: COC(=O)CC=C[C@@H](C)[C@@H](C=NO[C@@H]1O[C@H](COC(C)=O)[C@@H](OC(C)=O)[C@H](OC(C)=O)[C@H]1OC(C)=O)OC
categoryLabel: HIGH
--
molecule: CCOC(=O)[C@H](CC(C)C)NC(=O)CCC1CC(OC(=O)NCc2cccc3ccccc23)CC2(CCCC(COC(=O)NCCc3ccc(Cl)cc3)O2)O1 (some centres not stated)
categoryLabel: HIGH
--
molecule: CC(CCC(=O)OC[C@H]1O[C@H](C#Cc2ccccc2)C=C[C@@H]1Oc1ccc(C)cc1)=NO[C@H](C)c1cn([C@H](CO)Cc2ccccc2)nn1
categoryLabel: MEDIUM
--
molecule: CCCNC(=O)OC[C@H]1O[C@H](CCON=Cc2ccc(C(=O)N3[C@H](c4ccc(C)cc4)[C@@H](C)CC[C@H]3C(=O)OC)cc2)C=C[C@@H]1Oc1ccc(OC)cc1
categoryLabel: MEDIUM
--
molecule: CC(CCN1CCCCc2nc(C)c(C)cc21)=NOC[C@@H](O)COCc1ccco1
categoryLabel: LOW
--
molecule: CC(C)(C)N1C(=O)[C@H]2[C@H]3[C@H](O)[C@H](O)CC(=NO[C@@H]4O[C@H](CO)[C@@H](O)[C@H](O)[C@H]4O)[C@H]3CC[C@H]2C1=O
categoryLabel: LOW
--
molecule: CC(=O)OC[C@H]1O[C@@H](ON=C(C)CCN2CCCc3nc(C)c(C)cc32)[C@H](OC(C)=O)[C@@H](OC(C)=O)[C@@H]1OC(C)=O
categoryLabel: HIGH
--
molecule: CO[C@@H]1COC(=O)[C@@H](C)NC(=O)CC=C[C@@H](C)[C@H](NS(=O)(=O)c2ccc(C)cc2)COC(=O)[C@H](C)NC(=O)CC=C[C@H]1C
categoryLabel: HIGH
--
molecule: COC(=O)CC=C[C@@H](C)[C@@H](C=NO[C@H](C)c1cn([C@@H]2COC[C@H]2O)nn1)NS(=O)(=O)c1ccc(C)cc1
categoryLabel: LOW
--
molecule: CCOC(=O)[C@H](Cc1ccccc1)NC(=O)CCC1CC(OC(=O)NCc2cccc3ccccc23)CC2(CCCC(COC(=O)NCc3cccc(C(F)(F)F)c3)O2)O1 (some centres not stated)
categoryLabel: LOW
--
molecule: COc1ccc(COC(=O)NN=C2C[C@@H](O)[C@@H](O)[C@@H]3[C@@H]4C(=O)N(Cc5ccccc5)C(=O)[C@@H]4CC[C@H]23)cc1
categoryLabel: HIGH
--
molecule: CC(=O)OC[C@H]1O[C@H](CCON=C2[C@H]3CCn4c(=O)n(-c5ccccc5)c(=O)n4[C@H]3[C@H](O)[C@@H]3O[C@H]23)C=C[C@@H]1OC(C)=O
categoryLabel: LOW
--
molecule: COC(=O)CC=C[C@@H](C)[C@@H](C=NOC(C)CN1CCCc2nc(C)c(C)cc21)OC (some centres not stated)
categoryLabel: LOW

====

assay: anti-His antibody binders, primary screen, artefact control for SMM control protein annotation, biochemical, small-molecule microarray, 635 nm fluorescence (AID 1128); settings: anti-His Alexa647 antibody binding, higher = more signal;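 also: score merges feature fluorescence with signal-to-noise for each printed compound spot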
Please enter t where composite z-score is greater than or equal to 0.1, and f where it is lower.

recordSmiles: CCN1C(=O)[C@H]2[C@H]3[C@H](O)[C@H](O)CC(=O)[C@@H]3CC[C@H]2C1=O
categoryLabel: t

recordSmiles: O=C1C[C@@H](O)[C@@H](O)[C@@H]2[C@@H]3C(=O)N(Cc4ccccc4)C(=O)[C@@H]3CC[C@@H]12
categoryLabel: t

recordSmiles: CC(C)(C)N1C(=O)[C@H]2[C@H]3[C@H](O)[C@H](O)CC(=O)[C@@H]3CC[C@H]2C1=O
categoryLabel: f

recordSmiles: CC(C)=CCCC(C)=CCON=C1C[C@@H](O)[C@@H](O)[C@@H]2[C@@H]3C(=O)N(Cc4ccccc4)C(=O)[C@@H]3CC[C@H]12
categoryLabel: t

recordSmiles: COc1ccc(O[C@H]2C=C[C@@H](c3ccccc3)O[C@@H]2CON=CC[C@@H]2C=C[C@H](OC(C)=O)[C@@H](COC(C)=O)O2)cc1
categoryLabel: t
